# SYSTEM UNDER TEST: human TRPV3 (Homo sapiens)
# Construct: expressed in transfected cells
# Sequence (Q8NET8 whole entry): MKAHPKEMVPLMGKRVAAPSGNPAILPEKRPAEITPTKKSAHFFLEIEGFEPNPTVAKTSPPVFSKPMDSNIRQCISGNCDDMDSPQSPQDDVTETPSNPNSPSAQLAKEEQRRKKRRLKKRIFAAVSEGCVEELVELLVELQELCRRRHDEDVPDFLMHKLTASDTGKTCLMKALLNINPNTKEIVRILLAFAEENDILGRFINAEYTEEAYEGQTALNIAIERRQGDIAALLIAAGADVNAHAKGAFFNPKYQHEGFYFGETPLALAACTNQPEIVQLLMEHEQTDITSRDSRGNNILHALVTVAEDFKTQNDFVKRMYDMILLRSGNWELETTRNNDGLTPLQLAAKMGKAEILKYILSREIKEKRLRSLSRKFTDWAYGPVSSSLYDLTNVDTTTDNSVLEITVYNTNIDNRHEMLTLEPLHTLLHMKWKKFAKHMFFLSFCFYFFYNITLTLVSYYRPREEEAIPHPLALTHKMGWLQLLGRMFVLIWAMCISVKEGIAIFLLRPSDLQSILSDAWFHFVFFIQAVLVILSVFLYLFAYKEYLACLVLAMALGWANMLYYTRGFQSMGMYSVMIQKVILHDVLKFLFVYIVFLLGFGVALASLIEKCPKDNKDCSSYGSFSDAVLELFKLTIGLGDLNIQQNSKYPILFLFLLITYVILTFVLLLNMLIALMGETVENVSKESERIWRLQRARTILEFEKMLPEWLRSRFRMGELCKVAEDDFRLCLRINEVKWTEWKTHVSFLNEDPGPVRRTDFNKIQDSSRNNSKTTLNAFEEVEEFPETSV
# PROTOCOL NOTES: In vitro antagonism of recombinant human TRPV3 activation (FLIPR Tetra calcium assay)
# Assay type: cell-based
# CONDITION DETAILS: HEK293 cells stably expressing human TRPV3; agonist 2-APB at 80 μM; actual measured value shown parenthetically; in most cases average of at least two runs; read-out: IC50
# Protocol: Test compounds were evaluated for ability to antagonize the activation of recombinant human TRPV3 using FLIPR® Tetra cellular screening. […] A double-addition protocol was used. […] Each test compound evaluated was first dissolved in DMSO to prepare a 10 mM stock solution. […] Changes in fluorescence were measured over time using the FLIPR® instrument. The intensity of the fluorescence was captured and digitally transferred to an interfaced computer. […]
pIC50: −log10 of the molar value.
Respond with Yes for pIC50 values of 6 and above, No for values below.

Task item: Tell me whether pIC50 is at least 6 here: OC(c1ccccn1)C1(c2ccc(F)cc2)CCOCC1 (centres unmarked)
Reply: No

Task item: Tell me whether pIC50 is at least 6 here: N[C@H]1CCC[C@@H]1[C@H](O)C1(c2ccc(Cl)c(Cl)c2)CCC1
Reply: No

Task item: Tell me whether pIC50 is at least 6 here: OC(c1ccccn1)C1(c2ccc(OC(F)(F)F)cc2)CCCO1 (single isomer, unassigned) [Example 95]
Reply: No

Task item: Tell me whether pIC50 is at least 6 here: OC1CC(c2cc(C(F)(F)F)ccn2)([C@H](O)c2ccccn2)C1 (some centres unmarked)
Reply: No

Task item: Tell me whether pIC50 is at least 6 here: O[C@@H](c1ccccn1)C1(c2cc(C(F)(F)F)ccn2)CCC1
Reply: No

Task item: Tell me whether pIC50 is at least 6 here: OC(c1ccccn1)C1(c2cccc(C(F)(F)F)c2)CCCO1 (single isomer, unassigned) [Example 106]
Reply: Yes

Task item: Tell me whether pIC50 is at least 6 here: OC(c1ccccn1)C1(c2cccc(OC(F)(F)F)c2)CCOC1 (centres unmarked)
Reply: No

Task item: Tell me whether pIC50 is at least 6 here: CC1(O)CC(c2ccc(C(F)(F)F)cc2)(C(O)c2ccccn2)C1 (single isomer, unassigned) [Example 233]
Reply: No

Task item: Tell me whether pIC50 is at least 6 here: OC(c1ccccn1)C1(c2ccc(C(F)(F)F)cc2)CC(F)(F)C1 (centres unmarked)
Reply: Yes

Task item: Tell me whether pIC50 is at least 6 here: CON=C1CC(c2ccc(OC(F)(F)F)cc2)([C@H](O)c2ccccn2)C1 (some centres unmarked)
Reply: No

Task item: Tell me whether pIC50 is at least 6 here: Cc1cccc(C2(C(O)c3ccccn3)CCC2)c1 (centres unmarked)
Reply: Yes

Task item: Tell me whether pIC50 is at least 6 here: O[C@@H](c1ccccn1)C1(c2cc(C(F)(F)F)ccn2)CC(F)(F)C1
Reply: No

Task item: Tell me whether pIC50 is at least 6 here: NC1CCCCC1C(O)C1(c2cccc(C(F)(F)F)c2)CCC1 (centres unmarked)
Reply: No

Task item: Tell me whether pIC50 is at least 6 here: OC1CC(c2cncc(C(F)(F)F)c2)(C(O)c2ccccn2)C1 (centres unmarked) [Example 304]
Reply: Yes

Task item: Tell me whether pIC50 is at least 6 here: OC(C1CCc2cccnc21)C1(c2ccc(C(F)(F)F)cc2)CCC1 (centres unmarked) [Example 174]
Reply: No

Task item: Tell me whether pIC50 is at least 6 here: OC(c1ccccn1)C1(c2nc3ccc(Cl)cc3o2)CCC1 (centres unmarked)
Reply: No

Task item: Tell me whether pIC50 is at least 6 here: OC(c1ncccn1)C1(c2ccc(Cl)c(Cl)c2)CCC1 (centres unmarked)
Reply: Yes

Task item: Tell me whether pIC50 is at least 6 here: OC(c1ccccn1)C1(C2CCc3ccccc32)CCC1 (centres unmarked)
Reply: No

Task item: Tell me whether pIC50 is at least 6 here: O=C1CC(c2cccc(C(F)(F)F)c2)([C@@H](O)c2ccccn2)C1 (single isomer, unassigned)
Reply: No

Task item: Tell me whether pIC50 is at least 6 here: O=C1CC(c2cc(C(F)(F)F)ccn2)(C(O)c2ccccn2)C1 (centres unmarked)
Reply: No

Task item: Tell me whether pIC50 is at least 6 here: N[C@H]1CCC[C@H]1[C@@H](O)C1(c2ccc(Cl)c(Cl)c2)CCC1
Reply: No

Task item: Tell me whether pIC50 is at least 6 here: NC1CCCC1C(O)C1(c2ccc(C(F)(F)F)cc2)CCC1 (centres unmarked)
Reply: No

Task item: Tell me whether pIC50 is at least 6 here: OC(c1ccccn1)C1(c2ccc(Cl)c(Cl)c2)CCCO1 (single isomer, unassigned) [Example 98]
Reply: Yes

Task item: Tell me whether pIC50 is at least 6 here: O[C@H](c1ccccn1)C1(c2cccc(C(F)(F)F)n2)CCC1
Reply: No

Task item: Tell me whether pIC50 is at least 6 here: OC(C1CCc2cccnc21)C1(c2cccc(C(F)(F)F)c2)CCC1 (centres unmarked) [Example 185]
Reply: No

Task item: Tell me whether pIC50 is at least 6 here: O=C1CC(c2cccc(OC(F)(F)F)c2)(C(O)c2ccccn2)C1 (centres unmarked)
Reply: No

Task item: Tell me whether pIC50 is at least 6 here: O=C1CC(c2ccc(C(F)(F)F)cc2)([C@@H](O)c2ccccn2)C1 (single isomer, unassigned)
Reply: No

Task item: Tell me whether pIC50 is at least 6 here: OC1CC(c2cccc(OC(F)(F)F)c2)(C(O)c2ccccn2)C1 (single isomer, unassigned) [Example 273]
Reply: Yes

Task item: Tell me whether pIC50 is at least 6 here: OC(c1ccccn1)C1(c2ccccc2F)CCCO1 (centres unmarked) [Example 102]
Reply: No

Task item: Tell me whether pIC50 is at least 6 here: O[C@H](c1ccccn1)[C@]1(c2cccc(C(F)(F)F)c2)C[C@@H](O)C1
Reply: Yes

Task item: Tell me whether pIC50 is at least 6 here: OC(c1ccccn1)C1(c2ccc(Cl)c(Cl)c2)COC1 (centres unmarked)
Reply: No

Task item: Tell me whether pIC50 is at least 6 here: OC(C1CCCc2cccnc21)C1(c2ccc(OC(F)(F)F)cc2)CCC1 (single isomer, unassigned) [Example 177]
Reply: No
